test: chemical genetic growth profiling, strain panel (AID 1159580);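 note: tested at 20 µM; growth read once vehicle control cultures reached saturation at 30 °C; 1 = growth at the plate median or of vehicle wells; lower values mean less growth of the strain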
assay conditions: S. cerevisiae deletion strains, growth OD, locus YLL026W, active compounds read low
The campaign covered roughly 5,500 compounds. About 2,000 (36%) were called active. Roughly 18% stayed inconclusive and do not appear here. This is one part of the list.
We begin with a simple list: items and their reported normalized growth.
result type: normalized growth

INSERT INTO measurements (compound, val) VALUES
  ('CCCC(C(=O)OCCN(CC)CC)(c1ccccc1)c1ccccc1', 1.01),
  ('COc1cc(C)c(C(=O)Oc2cc(C)c(C(=O)O)c(O)c2C)c(OC)c1C', 0.968),
  ('C[C@H](CCC(=O)O)[C@H]1CCC2C3C(CC[C@@]21C)[C@@]1(C)CC[C@@H](O)C[C@H]1C[C@@H]3O (some centres undefined)', 0.987),
  ('COc1cc([C@H]2Oc3cc([C@H]4Oc5cc(O)cc(O)c5C(=O)[C@@H]4O)ccc3O[C@@H]2CO)ccc1O', 1.01),
  ('c1ccc2nc(N3CCNCC3)ccc2c1', 1),
  ('Clc1ccc2c(c1)C(N1CCNCC1)=Nc1ccccc1O2', 1),
  ('COC(=O)CCC(C)C1CCC2C3CC[C@@H]4C[C@H](O)CC[C@]4(C)C3C[C@H](O)[C@]12C (some centres undefined)', 0.986),
  ('CCN(CC)CCOC(=O)C(c1ccccc1)c1ccccc1', 0.971),
  ('COC(=O)CCC(C)[C@H]1CCC2C3C(C[C@H](O)[C@@]21C)[C@@]1(C)CC[C@@H](O)C[C@H]1C[C@H]3O (some centres undefined)', 1.01);
